Reference source for all entries: patent US20260216366A1

Test: Pharmacokinetic study of CLDN18.2-linker conjugates (serum ELISA, NCA)
Type: in vivo, BALB/c mice
Settings: BALB/c mice, intravenous, about 1 mg/kg, serum, over 48 hours
Please use True whenever T1/2 is not below 90 min, and False whenever it is.

CLDN18.2-L006: Claudin 18.2 sdAb (SEQ ID NO. 1) conjugated with functional linker L006 (conjugate, functional linker L006 conjugated) VHH: EVQLVESGGGLVQPGGSLRLSCAASGSFFRIVAMGWYRQAPGSQRELVATITRGGSTYYADSVKGRFTISRDNAKNTLYLQMNSLRAEDTAVYYCNVRVEVPFMQPNDYWGQGTLVTVSS
False
CLDN18.2-L012: Claudin 18.2 sdAb (SEQ ID NO. 1) conjugated with functional linker L012 (conjugate, functional linker L012 conjugated) VHH: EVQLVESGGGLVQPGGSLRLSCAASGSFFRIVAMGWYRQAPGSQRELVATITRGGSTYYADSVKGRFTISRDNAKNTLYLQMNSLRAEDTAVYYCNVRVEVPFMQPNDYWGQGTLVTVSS
False
CLDN18.2-DOTAGA: Claudin 18.2 sdAb (SEQ ID NO. 1) conjugated with DOTAGA, used as control for chelating imaging radioisotope (conjugate, DOTAGA chelator conjugated) VHH: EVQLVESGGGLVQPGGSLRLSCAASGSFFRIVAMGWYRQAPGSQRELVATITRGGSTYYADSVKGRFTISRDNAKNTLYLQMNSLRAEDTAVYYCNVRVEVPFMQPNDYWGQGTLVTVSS
False
CLDN18.2-L008: Claudin 18.2 sdAb (SEQ ID NO. 1) conjugated with functional linker L008 (conjugate, functional linker L008 conjugated) VHH: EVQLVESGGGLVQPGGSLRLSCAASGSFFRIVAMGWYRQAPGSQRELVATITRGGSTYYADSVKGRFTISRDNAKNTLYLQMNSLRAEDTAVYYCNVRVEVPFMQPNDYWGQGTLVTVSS
False
CLDN18.2-L010: Claudin 18.2 sdAb (SEQ ID NO. 1) conjugated with functional linker L010 (conjugate, functional linker L010 conjugated) VHH: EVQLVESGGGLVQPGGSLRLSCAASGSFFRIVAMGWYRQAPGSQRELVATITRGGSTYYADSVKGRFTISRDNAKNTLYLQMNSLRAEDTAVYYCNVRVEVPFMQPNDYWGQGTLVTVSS
True
CLDN18.2-L009: Claudin 18.2 sdAb (SEQ ID NO. 1) conjugated with functional linker L009 (conjugate, functional linker L009 conjugated) VHH: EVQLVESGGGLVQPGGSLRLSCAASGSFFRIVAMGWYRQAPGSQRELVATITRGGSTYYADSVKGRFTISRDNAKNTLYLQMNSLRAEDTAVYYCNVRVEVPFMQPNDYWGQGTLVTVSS
True
CLDN18.2-L007: Claudin 18.2 sdAb (SEQ ID NO. 1) conjugated with functional linker L007 (conjugate, functional linker L007 conjugated) VHH: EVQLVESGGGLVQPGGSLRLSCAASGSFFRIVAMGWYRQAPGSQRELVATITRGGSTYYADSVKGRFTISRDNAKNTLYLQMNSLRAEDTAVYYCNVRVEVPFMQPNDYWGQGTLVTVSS
True
CLDN18.2-L005: Claudin 18.2 sdAb (SEQ ID NO. 1) conjugated with functional linker L005 (conjugate, functional linker L005 conjugated) VHH: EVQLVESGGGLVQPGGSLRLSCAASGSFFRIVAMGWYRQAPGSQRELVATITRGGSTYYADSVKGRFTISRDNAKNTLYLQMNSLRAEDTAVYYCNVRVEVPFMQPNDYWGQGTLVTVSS
False

As a next step, examine the molecule that follows.
Hi team, for CLDN18.2-L003: Claudin 18.2 sdAb (SEQ ID NO. 1) conjugated with functional linker L003 (conjugate, functional linker L003 conjugated) VHH: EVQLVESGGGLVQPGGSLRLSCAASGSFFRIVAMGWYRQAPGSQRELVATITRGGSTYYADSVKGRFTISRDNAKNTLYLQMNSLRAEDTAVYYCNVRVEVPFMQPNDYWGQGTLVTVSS , is the recorded T1/2 at or above 90 min?
False
